Tested on: OVCAR-5 ovarian
Measurement Notes: NCI tumour cell line growth inhibition, 48 h
Result Type: TGI (µM)
Enter your answer as a number in µM; do not include the unit.

Summary: `CC1(C)CC[C@]2(C(N)=O)CC[C@]3(C)C(=CC[C@@H]4[C@@]5(C)C/C(=C/c6ccncc6)C(=O)C(C)(C)[C@@H]5CC[C@]43C)[C@@H]2C1` , OVCAR-5 ovarian, TGI = 3.16

Tested system OVCAR-5 ovarian; TGI recorded for COc1ccc(C(O)CC(O)(C(F)(F)F)C(F)(F)F)cc1 (stereo not given) was 83.9

* * *

Test system: HOP-62 NSCLC
Measurement Notes: NCI tumour cell line growth inhibition, 48 h
Kindly state TGI for each of the entries shown.

// recorded TGI for COc1ccccc1NC(=O)C(CC(C(=O)Nc1ccccc1OC)/C(C)=N/Nc1ccc([N+](=O)[O-])cc1[N+](=O)[O-])/C(C)=N/Nc1ccc([N+](=O)[O-])cc1[N+](=O)[O-] (centres undefined) : > 100 µM

Entry under test: `Cc1cc(Cl)ccc1NS(=O)(=O)c1ccc(-c2cnc(C3CC3)o2)cc1` . Its TGI was 21.5 µM

Noted for `COc1cc2cc3c4c(cc(OC)c(OC)c4c2cc1OC)CCN3C(=O)CCC(=O)NCCCN(C)C` : its TGI reads > 100 µM

// TGI value for `N/C(=N\Nc1ccc(S(N)(=O)=O)cc1)c1cnccn1` : > 100 µM
